target: Quinolone resistance protein NorA (Staphylococcus aureus); test: Inhibition of Staphylococcus aureus 1199B NorA assessed as inhibition of ethidium bromide efflux at 50 uM measured after 5 mins by fluorometric method relative to control
Decide using inhibition: a value greater than or equal to 70% is condition met, a smaller one is condition not met.

# count of solved cases: 6
| compound | measurement.target | discrete.label |
| --- | --- | --- |
| CCOC(=O)c1c(C)n(Cc2ccccc2)c2ccc(OCCN3CCN(CCCOc4ccccc4-c4ccccc4)CC3)cc12 | Quinolone resistance protein NorA (Staphylococcus aureus) | condition not met |
| OCCCN1CCN(CCCOc2ccccc2-c2ccccc2)CC1 | Quinolone resistance protein NorA (Staphylococcus aureus) | condition not met |
| CCOC(=O)c1c(C)n(Cc2ccccc2)c2ccc(OCCCNCc3nnnn3-c3ccccc3)cc12 | Quinolone resistance protein NorA (Staphylococcus aureus) | condition not met |
| CCOC(=O)c1c(C)n(Cc2ccccc2)c2ccc(OCCCN3CCN(CCCOc4ccc(F)cc4)CC3)cc12 | Quinolone resistance protein NorA (Staphylococcus aureus) | condition not met |
| CCOC(=O)c1c(C)n(Cc2ccccc2)c2ccc(OCCNCc3ccc(Oc4nnnn4-c4ccccc4)c(OC)c3)cc12 | Quinolone resistance protein NorA (Staphylococcus aureus) | condition not met |
| CCOC(=O)c1c(C)n(Cc2ccccc2)c2ccc(OCCCNCc3ccc(F)c(OC)c3)cc12 | Quinolone resistance protein NorA (Staphylococcus aureus) | condition not met |

Assess whether reported inhibition for CCOC(=O)c1c(C)n(Cc2ccccc2)c2ccc(OCC(O)CNCc3ccc(Oc4nnnn4-c4ccccc4)c(OC)c3)cc12 (stereo not drawn) sits at 70% or higher.
condition met

Assess whether reported inhibition for COc1cc(CNCCO)ccc1Oc1nnnn1-c1ccccc1 sits at 70% or higher.
condition not met

Assess whether reported inhibition for CCOC(=O)c1c(C)n(Cc2ccccc2)c2ccc(OCCCN3CCN(CCCOc4ccccc4-c4ccccc4)CC3)cc12 sits at 70% or higher.
condition not met

Assess whether reported inhibition for CCOC(=O)c1c(C)n(Cc2ccccc2)c2ccc(OCCCCNCc3ccc(Oc4nnnn4-c4ccccc4)c(OC)c3)cc12 sits at 70% or higher.
condition met
